B1: tRNA (parent)
chain: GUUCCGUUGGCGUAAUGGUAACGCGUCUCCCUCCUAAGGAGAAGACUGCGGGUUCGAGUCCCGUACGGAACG

variants of: B1; assay: yeast fitness relative to wild type (ratio to wild type); higher = fitter; tRNA-Arg(CCU), competitive growth, 37 C, YPD
Fewer inactive variants are shown than the library holds.
Measurement kind: yeast fitness
Give bare numbers.

Worked cases, answers included:
Variant code: U2G C29U
yeast fitness: 0.851
//
Variant code: C24G A40G A42G
yeast fitness: 0.54
//
Variant code: G10A A42G
yeast fitness: 0.656
//
Variant code: C22U A57G A70U
yeast fitness: 0.591
//
Variant code: C24A C31U U53A
yeast fitness: 0.786

Would you be so kind as to report yeast fitness for each listed record?
1. U3C C61U G67A
2. C30A G39U
3. C22U C49U
4. A36G C66G

1. 0.567
2. 0.772
3. 0.816
4. 0.689

Values compiled from the RNAGym collection of RNA variant scans (doi:10.1126/science.aae0568).
